Data credit: ChEMBL document CHEMBL1811766

assay: Cmax in Swiss albino mouse at 30 mg/kg, po; assay type: ADME, organism-based; parameters: dose 30 mg/kg, route oral; details: in vivo
readoutLabel: Cmax (ng/mL)

>>> reportedmeasurement("Cc1c(C(=O)NC2(c3noc(C(F)(F)F)n3)CC2)nn(-c2ccc(Cl)cc2Cl)c1-c1ccc(Cl)cc1")
350

---

target: hERG (KCNH2) (Homo sapiens, UniProt Q12809); assay: Inhibition of human ERG expressed in HEK293 cells assessed as inhibition of potassium channel current at 30 uM after 5 mins by patch clamp assay; assay type: cell-based; details: HEK293 cells expressing human ERG
Sequence (Q12809 whole entry): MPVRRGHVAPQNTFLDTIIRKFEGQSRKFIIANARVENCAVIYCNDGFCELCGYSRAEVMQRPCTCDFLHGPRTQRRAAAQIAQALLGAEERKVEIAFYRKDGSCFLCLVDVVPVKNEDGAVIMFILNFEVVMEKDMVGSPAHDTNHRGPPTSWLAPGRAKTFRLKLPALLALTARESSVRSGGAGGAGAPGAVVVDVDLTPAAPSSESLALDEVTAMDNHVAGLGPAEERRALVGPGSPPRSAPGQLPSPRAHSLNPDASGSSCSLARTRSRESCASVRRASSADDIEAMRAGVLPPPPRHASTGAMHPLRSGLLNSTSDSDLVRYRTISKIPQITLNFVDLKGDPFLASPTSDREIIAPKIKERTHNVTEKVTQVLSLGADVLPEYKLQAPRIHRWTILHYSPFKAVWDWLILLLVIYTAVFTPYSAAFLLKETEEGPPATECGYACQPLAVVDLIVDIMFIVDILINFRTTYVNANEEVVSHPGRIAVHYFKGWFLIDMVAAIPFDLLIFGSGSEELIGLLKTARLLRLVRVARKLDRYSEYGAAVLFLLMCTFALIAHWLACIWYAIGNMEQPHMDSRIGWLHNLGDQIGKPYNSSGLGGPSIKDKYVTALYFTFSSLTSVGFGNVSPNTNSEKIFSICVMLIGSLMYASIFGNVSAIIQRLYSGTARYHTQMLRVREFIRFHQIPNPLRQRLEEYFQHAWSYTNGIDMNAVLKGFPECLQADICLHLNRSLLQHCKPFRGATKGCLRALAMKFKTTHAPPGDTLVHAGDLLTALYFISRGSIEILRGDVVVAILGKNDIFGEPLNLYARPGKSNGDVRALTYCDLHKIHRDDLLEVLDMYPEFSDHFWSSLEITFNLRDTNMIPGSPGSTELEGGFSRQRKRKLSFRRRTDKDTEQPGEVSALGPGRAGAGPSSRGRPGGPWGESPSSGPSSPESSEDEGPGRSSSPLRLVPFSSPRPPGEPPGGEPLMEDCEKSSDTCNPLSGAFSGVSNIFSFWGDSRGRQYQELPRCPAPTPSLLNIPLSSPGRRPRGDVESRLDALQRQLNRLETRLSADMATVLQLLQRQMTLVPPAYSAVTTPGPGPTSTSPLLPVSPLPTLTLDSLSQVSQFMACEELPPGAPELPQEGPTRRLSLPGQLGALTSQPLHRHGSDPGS
In this section, each of the compounds is paired with its reported inhibition at 5 min, 30 µM.
readoutLabel: inhibition at 5 min, 30 µM

>>> reportedmeasurement("Cc1c(C(=O)NC2(c3noc(C(F)(F)F)n3)CC2)nn(-c2ccc(Cl)cc2Cl)c1-c1ccc(Cl)cc1")
"7.2%"
>>> reportedmeasurement("CC(C)(NC(=O)c1nn(-c2ccc(Cl)cc2Cl)c(-c2ccc(Cl)cc2)c1CO)c1noc(C(F)(F)F)n1")
"38.9%"
